System: Tov-21-G
experiment.summary: Primary qHTS to identify gynecologic anti-cancer compounds using libraries of approved drugs and bioactive compounds (AID 1345084); note: nearly all actives have a fitted effect of over 55% in size
conditions.used: Gynecologic cancer cell panel viability, ATPlite luminescence, 48 h; series mostly up to 57.5 µM
Results filed as inconclusive are left out. Calls of active or inactive are those of the source. Calls come from the whole dose curve; as a rule, active = well fitted cell-killing curve with a large enough effect; inconclusive = small, poorly fitted or top-dose-only effect, or effect the other way; inactive = flat fitted curve, though single readings scatter.
Hi there, use one of these labels in your reply, thanks! active, inactive

# outcome recorded in this test, key = Cc1cc(C)cc(OCC2CNC(=O)O2)c1 (centres undefined) inactive

# outcome recorded in this test, key = Oc1ccc(Cl)cc1Cc1cc(Cl)ccc1O inactive

---
# outcome recorded in this test, key = C=C[C@H]1CN2CC[C@H]1C[C@@H]2[C@@H](O)c1ccnc2ccc(OC)cc12 inactive

# outcome recorded in this test, key = Cc1cccc(C)c1NC(=O)c1ccccc1C(=O)O inactive

# outcome recorded in this test, key = CCCCC(CC)COC(=O)c1ccc(N(C)C)cc1 (centres undefined) inactive

# outcome recorded in this test, key = Cc1ccc2c(Br)cc(Br)c(O)c2n1 active

# outcome recorded in this test, key = CC(O)Cn1cnc2c1c(=O)n(C)c(=O)n2C (centres undefined) inactive

# outcome recorded in this test, key = OCc1ccccn1 inactive

# outcome recorded in this test, key = C=C1c2cccc(O)c2C(O)=C2C(=O)[C@]3(O)C(O)=C(C(N)=O)C(=O)[C@@H](N(C)C)[C@@H]3[C@@H](O)[C@H]12 inactive

----------
Tested on: HB3
experiment.summary: qHTS profiling for inhibitors of Plasmodium falciparum proliferation (AID 504749); note: nearly all actives have a fitted effect of over 60% in size
conditions.used: P. falciparum in erythrocytes, SYBR Green DNA, 72 h; series mostly up to 28.7 µM
Records with an inconclusive call do not appear. The source made the active and inactive calls. Calls come from the whole dose curve; as a rule, active = well fitted inhibition curve with a large enough effect; inconclusive = small, poorly fitted or top-dose-only effect; inactive = flat fitted curve, though single readings scatter.
Hi there, use one of these labels in your reply, thanks! YES = active, NO = inactive

Below are worked cases with known answers.
# outcome recorded in this test, key = COc1cc([C@H]2Oc3cc([C@H]4Oc5cc(O)cc(O)c5C(=O)[C@@H]4O)ccc3O[C@@H]2CO)ccc1O NO

# outcome recorded in this test, key = CC(C)(C)NC[C@H](O)COc1cccc2c1CCCC2=O NO

# outcome recorded in this test, key = NC(N)=NN=C(/C=C/c1ccc([N+](=O)[O-])o1)/C=C/c1ccc([N+](=O)[O-])o1 YES

# outcome recorded in this test, key = O=S(c1cc(Cl)cc(Cl)c1O)c1cc(Cl)cc(Cl)c1O YES

# outcome recorded in this test, key = CCOC(=O)c1c(N)sc2c1CCN(Cc1ccccc1)C2 YES

---
# outcome recorded in this test, key = CCc1ccc(C(=O)C(C)CN2CCCCC2)cc1 (centres undefined) NO

# outcome recorded in this test, key = C#C[C@]1(O)CC[C@H]2[C@@H]3CCc4cc(OC)ccc4[C@H]3CC[C@@]21C NO

# outcome recorded in this test, key = CC(=O)Oc1ccc(C)cc1 NO

# outcome recorded in this test, key = CN1CCN(C2=Nc3cc(F)ccc3Cc3ccccc32)CC1 NO

# outcome recorded in this test, key = COc1ccc2c(c1)c1c3n2CCN(C)C3=NCC1 NO

# outcome recorded in this test, key = CCOC(=O)C(C#N)=C(c1ccccc1)c1ccccc1 NO

# outcome recorded in this test, key = Cc1nc(-c2ccc(Cl)cc2)oc1COC(C)(C)C(=O)O NO

# outcome recorded in this test, key = COc1ccccc1N1CCN(CCCCNC(=O)c2ccc(-c3ccc(C(C)=O)cc3)cc2)CC1 NO

# outcome recorded in this test, key = CC1(COc2ccc(CC3SC(=O)NC3=O)cc2)CCCCC1 (centres undefined) NO
